Study target: hα9α10 nAChR (Homo sapiens, UniProt Q9GZZ6+Q9UGM1)
Sequence (Q9UGM1 26-479 limits assumed): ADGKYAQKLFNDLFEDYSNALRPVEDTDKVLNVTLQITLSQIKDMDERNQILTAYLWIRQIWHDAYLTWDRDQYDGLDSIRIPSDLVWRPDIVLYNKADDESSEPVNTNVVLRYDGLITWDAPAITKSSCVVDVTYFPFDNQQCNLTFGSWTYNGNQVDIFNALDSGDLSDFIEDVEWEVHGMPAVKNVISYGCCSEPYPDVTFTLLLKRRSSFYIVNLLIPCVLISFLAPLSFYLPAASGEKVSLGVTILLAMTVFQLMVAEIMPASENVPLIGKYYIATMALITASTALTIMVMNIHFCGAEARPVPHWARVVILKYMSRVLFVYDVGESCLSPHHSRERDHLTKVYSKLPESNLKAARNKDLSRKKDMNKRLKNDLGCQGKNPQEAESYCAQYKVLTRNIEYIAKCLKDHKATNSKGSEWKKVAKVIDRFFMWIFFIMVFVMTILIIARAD
Sequence (Q9GZZ6 25-450 limits assumed): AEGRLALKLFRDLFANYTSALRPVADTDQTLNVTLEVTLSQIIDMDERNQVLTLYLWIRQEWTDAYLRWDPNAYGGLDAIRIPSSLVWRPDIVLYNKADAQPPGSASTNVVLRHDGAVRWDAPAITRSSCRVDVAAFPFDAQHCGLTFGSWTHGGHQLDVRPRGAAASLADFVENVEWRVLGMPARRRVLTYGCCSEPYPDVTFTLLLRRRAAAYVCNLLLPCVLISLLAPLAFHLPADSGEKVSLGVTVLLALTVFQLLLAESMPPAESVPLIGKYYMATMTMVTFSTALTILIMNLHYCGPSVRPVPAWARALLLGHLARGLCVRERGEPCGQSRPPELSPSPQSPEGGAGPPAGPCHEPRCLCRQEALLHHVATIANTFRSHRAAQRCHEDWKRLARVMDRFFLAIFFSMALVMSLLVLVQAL
Protocol summary: cell-based
Where a SMILES comes first, the peptide text is derived from it. Bridges are numbered along the chain shown (N, C = ends). [ ]: non-standard residue; d: D form. Dap = NC[C@H](N)C(=O)O
Readout: Enhancement of activity (IC50) at hα9α10 relative to PeIA

[
  {
    "Compound": "CC(C)C[C@@H]1NC(=O)[C@H](CCC(=O)O)NC(=O)[C@@H]2CCCN2C(=O)[C@H](Cc2c[nH]cn2)NC(=O)[C@H](CC(N)=O)NC(=O)[C@H](C(C)C)NC(=O)[C@H](CN)NC(=O)[C@@H]2CSSC[C@H](NC(=O)CN)C(=O)N[C@@H](CSSC[C@@H](C(N)=O)NC1=O)C(=O)N[C@@H](CO)C(=O)N[C@@H](Cc1c[nH]cn1)C(=O)N1CCC[C@H]1C(=O)N[C@@H](C)C(=O)N2 [PeIA[S9Dap]] (H-GCCSHPAC[Dap]VNHPELC-NH2; disulfide 2-8, 3-16)",
    "Study target": "hα9α10 nAChR (Homo sapiens, UniProt Q9GZZ6+Q9UGM1)",
    "Readout value": "~5 fold"
  }
]

* * *

Study target: hα9α10 nAChR (Homo sapiens, UniProt Q9GZZ6+Q9UGM1)
Protocol summary: cell-based
Where a SMILES comes first, the peptide text is derived from it. Bridges are numbered along the chain shown (N, C = ends). [ ]: non-standard residue; d: D form. Dab = NCC[C@H](N)C(=O)O; Dap = NC[C@H](N)C(=O)O
Readout: Enhancement of activity (IC50) at hα9α10 relative to PeIA

[
  {
    "Compound": "CC(C)C[C@@H]1NC(=O)[C@H](CCC(=O)O)NC(=O)[C@@H]2CCCN2C(=O)[C@H](Cc2c[nH]cn2)NC(=O)[C@H](CC(N)=O)NC(=O)[C@H](C(C)C)NC(=O)[C@H](CN)NC(=O)[C@@H]2CSSC[C@H](NC(=O)CN)C(=O)N[C@@H](CSSC[C@@H](C(N)=O)NC1=O)C(=O)N[C@@H](CN)C(=O)N[C@@H](Cc1c[nH]cn1)C(=O)N1CCC[C@H]1C(=O)N[C@@H](C)C(=O)N2 [PeIA[S4Dap, S9Dap]] (H-GCC[Dap]HPAC[Dap]VNHPELC-NH2; disulfide 2-8, 3-16)",
    "Readout value": "~24 fold"
  },
  {
    "Compound": "CC(C)C[C@@H]1NC(=O)[C@H](CCC(=O)O)NC(=O)[C@@H]2CCCN2C(=O)[C@H](Cc2c[nH]cn2)NC(=O)[C@H](CC(N)=O)NC(=O)[C@H](C(C)C)NC(=O)[C@H](CO)NC(=O)[C@@H]2CSSC[C@H](NC(=O)CN)C(=O)N[C@@H](CSSC[C@@H](C(N)=O)NC1=O)C(=O)N[C@@H](CN)C(=O)N[C@@H](Cc1c[nH]cn1)C(=O)N1CCC[C@H]1C(=O)N[C@@H](C)C(=O)N2 [PeIA[S4Dap]] (H-GCC[Dap]HPACSVNHPELC-NH2; disulfide 2-8, 3-16)",
    "Readout value": "~13 fold"
  },
  {
    "Compound": "CC(C)C[C@@H]1NC(=O)[C@H](CCC(=O)O)NC(=O)[C@@H]2CCCN2C(=O)[C@H](Cc2c[nH]cn2)NC(=O)[C@H](CC(N)=O)NC(=O)[C@H](C(C)C)NC(=O)[C@H](CO)NC(=O)[C@@H]2CSSC[C@H](NC(=O)CN)C(=O)N[C@@H](CSSC[C@@H](C(N)=O)NC1=O)C(=O)N[C@@H](CCN)C(=O)N[C@@H](Cc1c[nH]cn1)C(=O)N1CCC[C@H]1C(=O)N[C@@H](C)C(=O)N2 [PeIA[S4Dab]] (H-GCC[Dab]HPACSVNHPELC-NH2; disulfide 2-8, 3-16)",
    "Readout value": "~ 4 fold"
  }
]
